# Tested on: K. pneumoniae NVT1001 strains with aminoglycoside resistance plasmids
# METHOD: Etest MIC of aminoglycosides, aminoglycoside-modifying enzyme or 16S rRNA methylase (Table 13)
# Assay type: cell-based, Klebsiella pneumoniae
# CONDITIONS: NVT1001 with RmtB on pACYC184
# Protocol: DNA fragments of the resistance genes along with their flanking regions were amplified from clinical plasmids via PCR with specific primer pairs. The resulting PCR fragments were digested and then cloned into the plasmid pACYC177 or pACYC184. The resulting plasmids were then transformed into K. pneumoniae strain NVT1001 via electroporation. […] The MICs of antibiotics were determined using the Etest (Biodisk AB, Sweden) according to the manufacturer's instructions. […]
REPORTED_ENDPOINT: MIC

The cases that follow already have their MIC on record.
MOL_SMILES	MIC
NC[C@H]1O[C@H](O[C@H]2[C@H](O)[C@@H](O[C@H]3O[C@H](CO)[C@@H](O)[C@H](N)[C@H]3O)[C@H](N)C[C@@H]2N)[C@H](N)C[C@@H]1O	>256 µg/mL
CN[C@@H]1[C@H](O[C@H]2[C@H](O[C@H]3[C@H](O)[C@@H](O)[C@H](N=C(N)N)[C@@H](O)[C@@H]3N=C(N)N)O[C@@H](C)[C@]2(O)C=O)O[C@@H](CO)[C@H](O)[C@H]1O	2 µg/mL
NC[C@@H]1O[C@@H](O[C@H]2[C@H](O)[C@@H](O[C@H]3O[C@H](CO)[C@@H](O)[C@H](N)[C@H]3O)[C@H](N)C[C@@H]2N)[C@@H](O)[C@H](O)[C@H]1O	>256 µg/mL
CN[C@@H]1[C@H](O)[C@H](NC)[C@H]2O[C@@]3(O)C(=O)C[C@@H](C)O[C@H]3O[C@@H]2[C@H]1O	16 µg/mL
CCN[C@@H]1C[C@H](N)[C@@H](O[C@H]2OC(CN)=CC[C@H]2N)[C@H](O)[C@H]1O[C@H]1OC[C@](C)(O)[C@H](NC)[C@H]1O	>256 µg/mL

Attention now turns to another entry.
For the compound NCC[C@H](O)C(=O)N[C@@H]1C[C@H](N)[C@@H](O[C@H]2O[C@H](CN)[C@@H](O)[C@H](O)[C@H]2O)[C@H](O)[C@H]1O[C@H]1O[C@H](CO)[C@@H](O)[C@H](N)[C@H]1O , give its reported MIC.
>256 µg/mL

Source of measurements: patent US10760110B2
